# Tested on: Rabbit platelet rich plasma (PRP)
# test_details: Inhibitory activity on platelet aggregation in rabbit platelet rich plasma (light transmission)
# Format: cell-based
# assay_setup: compound 10^-4 (unit not given); Adenosine diphosphate (ADP) 5 mM; added to PRP 30 minutes before agent
# Description: 3. Experiment for inhibitory activity on platelet aggregation in rabbit: Rabbit platelet rich plasma (PRP) was prepared by centrifugation of the citrated blood at 380 g for 10 minutes at 20°C. Test solution (10 µl) was added to PRP (200 µl) 30 minutes before treatment of aggregation agents (10 µl). The extent of aggregation was expressed with the maximum change in light transmission for PRP and platelet poor plasma was taken as a value of 100%
measurement_kind: Inhibitory activity on platelet aggregation, ADP
Returns: string containing the numeric result and its unit.

Use these answered entries as a reference point.
| compound | tested_system | observed_value |
| --- | --- | --- |
| COC(=O)C1=C(C)NC(C)=C(C(=O)OC/C=C/c2ccc(Cn3cncn3)cc2)C1c1cccc([N+](=O)[O-])c1 (centres unmarked) [Example 10] | Rabbit platelet rich plasma (PRP) | 2.1% |
| COC(=O)C1=C(C)NC(C)=C(C(=O)OC/C(C)=C/c2ccc(Cn3ccnc3)cc2)C1c1cccc([N+](=O)[O-])c1 (centres unmarked) [Example 8] | Rabbit platelet rich plasma (PRP) | 10.8% |
| COC(=O)C1=C(C)NC(C)=C(C(=O)OC/C=C/C=C/c2ccc(Cn3ccnc3)cc2)C1c1cccc([N+](=O)[O-])c1 (centres unmarked) [Example 19] | Rabbit platelet rich plasma (PRP) | 17.2% |
| COC(=O)C1=C(C)NC(C)=C(C(=O)OC/C=C/c2ccc(C(C)n3ccnc3)cc2)C1c1cccc([N+](=O)[O-])c1 (centres unmarked) [Example 24] | Rabbit platelet rich plasma (PRP) | 7.8% |
| COC(=O)C1=C(C)NC(C)=C(C(=O)OC/C=C/c2ccc(Cn3ccnc3)cc2)C1c1cccc(C(F)(F)F)c1 (centres unmarked) [Example 17] | Rabbit platelet rich plasma (PRP) | 10.5% |

# return recorded Inhibitory activity on platelet aggregation, ADP for input COC(=O)C1=C(C)NC(C)=C(C(=O)OC/C=C/c2ccc(Cn3ccnc3)cc2)C1c1cccnc1 (centres unmarked) [Example 22]
14.7%

# return recorded Inhibitory activity on platelet aggregation, ADP for input COC(=O)C1=C(C)NC(C)=C(C(=O)OC/C=C/c2ccc(Cn3ccnc3)cc2)C1c1cccc([N+](=O)[O-])c1 (centres unmarked) [Example 1]
7.3%

# return recorded Inhibitory activity on platelet aggregation, ADP for input CC1=C(C(=O)OC/C=C/c2ccccc2)C(c2cccc([N+](=O)[O-])c2)C(C(=O)OC/C=C/c2ccc(Cn3ccnc3)cc2)=C(C)N1 (centres unmarked) [Example 14]
4.3%

# return recorded Inhibitory activity on platelet aggregation, ADP for input COC(=O)C1=C(C)NC(C)=C(C(=O)OC)C1c1ccccc1[N+](=O)[O-] [NIFEDIPINE, reference compound]
0%

###

Inhibitory effect on KCl-induced contraction overview
# Tested on: Thoracic aortas
# test_details: Inhibitory activity on KCl-induced contraction of aorta (helical strips of thoracic aorta)
# Parameters: species or system male rabbits
# assay_setup: 10^-6M, 60min after addition; 30 mM KCl, rabbit aorta strips, 37°C
Just the number in %, nothing appended.

Use these answered entries as a reference point.
| molecule | observed_value |
| --- | --- |
| COC(=O)C1=C(C)NC(C)=C(C(=O)OC)C1c1ccccc1[N+](=O)[O-] [NIFEDIPINE, reference compound] | 87.6 |
| COC(=O)C1=C(C)NC(C)=C(C(=O)OC/C=C/C=C/c2ccc(Cn3ccnc3)cc2)C1c1cccc([N+](=O)[O-])c1 (centres unmarked) | 68.8 |
| COC(=O)C1=C(C)NC(C)=C(C(=O)OCCN(C)Cc2ccccc2)C1c1cccc([N+](=O)[O-])c1.Cl (centres unmarked) [NICARDIPINE, reference compound] | 91.1 |
| C/C=C/C=C/COC(=O)C1=C(C)NC(C)=C(C(=O)OC/C=C/c2ccc(Cn3ccnc3)cc2)C1c1cccc([N+](=O)[O-])c1 (centres unmarked) | 21.6 |

Now examine the next entry.
# return recorded Inhibitory effect on KCl-induced contraction for input COC(=O)C1=C(C)NC(C)=C(C(=O)OC/C=C/c2ccc(C(C)n3ccnc3)cc2)C1c1cccc([N+](=O)[O-])c1 (centres unmarked)
74.3
